Data origin, for the record: PubChem BioAssay AID2216

System: Ran GTPase (GTP-bound) - importin-beta complex
Experiment: disruptors of Ran-importin-beta complex formation – biochemical, FRET, CFP-Ran, YFP-importin-beta, homogeneous, primary screen (AID 2216)
Details: cell-free CFP-Ran/YFP-importin-beta FRET ratio; concentration not given here
The whole screen tested about 300,000 compounds, of which about 3,300 (1.1%) were called active. Another 6% or so got no clear call; they are omitted.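 How the source made its calls: active means more than half of the replicate wells show a fall in the fluorescence ratio signal beyond about 16% (limit read from the data, passing the limit was not always enough); inconclusive means exactly half of the replicate wells pass the set limit; inactive means fewer than half of replicates pass the limit.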 The sample holds actives, similar compounds and a random draw of the others, so the mix is not that of the screen.
Entry note: the call must match one of YES (active), NO (inactive)

Could you please tell me the result logged for CNC(C)C#Cc1ccc2sc3cc(OC)c(OC)cc3c(=O)c2c1 (stereo not drawn) in this assay?
YES

Next up: "N#C/C(=C\C1=C(N2CCOCC2)C(=C\c2ccccc2)/CC1)C(=O)Nc1ccccc1F"
NO

Next up: "COc1cccc(COC(=O)C2CCN(S(=O)(=O)c3ccc(Cl)cc3)CC2)c1OC"
NO

Next up: "CCN1CCN(C(=O)N(Cc2ccc(Cl)cc2)S(=O)(=O)c2ccc(C)cc2)CC1"
NO

Next up: "CC(=O)N1CCc2cc(S(=O)(=O)NC3CCCCC3)ccc21"
NO

Next up: "O=C(NNC(=O)c1cccnc1)Nc1ccccc1"
NO

Next up: "O=C(CCl)NNc1nc(-c2ccccc2)c2cc(Cl)ccc2n1"
NO

Next up: "COc1ccc(CNC(=O)COC(=O)CCS(=O)(=O)c2ccc(C)cc2)cc1OC"
NO

Next up: CCCCn1c(N)c(N(CCC(C)C)C(=O)CC2OC(=O)c3ccccc32)c(=O)[nH]c1=O (stereo not drawn)
NO

Next up: "CCCCn1c(N)c(N(CC(C)C)C(=O)c2ccc(-n3c(C)ccc3C)cc2)c(=O)[nH]c1=O"
NO

Next up: "COc1ccc(C(=O)Cc2cnn(-c3ccccc3)c2)c(O)c1"
YES

Next up: "COCCCn1c(SCC(=O)Nc2oc(C)c3c(C)n[nH]c(=O)c23)nc2sc3c(c2c1=O)CCC3"
NO

Next up: "O=C(Nc1ccc2nc3n(c(=O)c2c1)CCCCC3)c1ccccc1Cl"
NO

Next up: "COc1cc(/C=N\Nc2ccc([N+](=O)[O-])cn2)ccc1OCC(=O)O"
YES

Next up: "N#C/C(=C\c1ccc(-c2cccc([N+](=O)[O-])c2)o1)C(=O)NCCN1CCOCC1"
NO

Next up: "CC(=O)c1ccc(S(=O)(=O)N2CCN(c3nc4c(C)c(C)ccc4cc3C#N)CC2)cc1"
NO

Next up: CCC1CCCCN1CCNS(=O)(=O)c1ccc2c(c1)CCN2C(C)=O (stereo not drawn)
NO

Next up: "COc1ccccc1C(=O)NCCC(=O)NN1C(=O)NC2(CCCCC2)C1=O"
NO

Next up: "CCOC(=O)c1cc(NC(=O)c2cccnc2)ccn1"
NO

Next up: "Cc1c(C(=O)Nc2cccc(Cl)c2)cn2c(nc3ccccc32)c1C#N"
NO

Next up: "CCOc1ccccc1NC(=O)c1cccnc1"
NO

Next up: "COC(=O)Cc1cc(=O)n(-c2nc3ccccc3s2)[nH]1"
YES

Next up: "Nc1c(C(=O)Nc2ccc3c(c2)OCCO3)nnn1Cc1ccccc1"
NO

Next up: "O=C1CCc2cc(S(=O)(=O)Nc3ccc(C(F)(F)F)cc3)cc3c2N1CC3"
NO

Next up: "O=C(Nc1cccc(NC(=O)c2ccccc2[N+](=O)[O-])c1)c1ccccc1Cl"
NO

Next up: "NC(N)=Nc1nc(-c2ccccc2)c2cc(Cl)ccc2n1"
NO

Next up: "Cc1cc(/C=N/Nc2ccc([N+](=O)[O-])cn2)c(C)n1-c1cccc(C(=O)O)c1"
NO

Next up: "CCOC(=O)c1c(NC(=O)NC(C)(C)C)sc2c1CCN(C)C2"
NO

Next up: "OCCCNc1nc(-c2ccccc2)c2cc(Cl)ccc2n1"
YES

Next up: "COc1ccc(-c2cc(C(=O)N(C)CC(=O)Nc3ccccc3Cl)c3ccccc3n2)cc1OC"
NO

Next up: "COc1ccc(C(=O)CC(=O)c2ccc(C)cc2)c(O)c1"
NO

Next up: "O=C(Nc1ccc2sc3ccccc3c(=O)c2c1)c1ccccc1Cl"
YES

Next up: "CCOc1ccc(-c2cc(C(=O)N/N=C/c3ccc(O)cc3)c3ccccc3n2)cc1"
NO

Next up: Cn1nccc1C(=O)NC1CCCc2c1cnn2-c1ccccc1F (stereo not drawn)
NO

Next up: "Cc1cc(O)cc(O)c1C(=O)Cc1cnn(-c2ccccc2)c1"
NO

Next up: "Cc1cc(NCc2ccco2)n2c(nc3ccccc32)c1C#N"
YES

Next up: "COC(=O)Cc1[nH]n(-c2nc3ccccc3s2)c(=O)c1C(C)=Nc1ccc(OC)cc1"
NO

Next up: "CCN1C(=O)[C@@H]2[C@@H](c3ccc(-c4cccc(Cl)c4)cc3)N3CCC[C@@]3(C(=O)OC)[C@@H]2C1=O"
NO

Next up: CC(Oc1ccc(F)cc1)C(=O)Nc1ccccc1C(=O)NC1CC1 (stereo not drawn)
NO

Next up: "CCOC(=O)c1c(NC(=S)Nc2ccccc2C)sc2c1CCC2"
NO

Next up: "COC(=O)Cc1cc(=O)oc2c(C)c(O)ccc12"
YES

Next up: "CCCNS(=O)(=O)c1ccc2c(c1)CCCN2C(C)=O"
YES

Next up: "COc1ccc(C2C3=C(CCCC3=O)N(CC(=O)O)C3=C2C(=O)CCC3)cc1"
YES
